# system_under_test: Myosin light chain kinase, smooth muscle (Gallus gallus) (UniProt P11799)
# Sequence (P11799 whole entry): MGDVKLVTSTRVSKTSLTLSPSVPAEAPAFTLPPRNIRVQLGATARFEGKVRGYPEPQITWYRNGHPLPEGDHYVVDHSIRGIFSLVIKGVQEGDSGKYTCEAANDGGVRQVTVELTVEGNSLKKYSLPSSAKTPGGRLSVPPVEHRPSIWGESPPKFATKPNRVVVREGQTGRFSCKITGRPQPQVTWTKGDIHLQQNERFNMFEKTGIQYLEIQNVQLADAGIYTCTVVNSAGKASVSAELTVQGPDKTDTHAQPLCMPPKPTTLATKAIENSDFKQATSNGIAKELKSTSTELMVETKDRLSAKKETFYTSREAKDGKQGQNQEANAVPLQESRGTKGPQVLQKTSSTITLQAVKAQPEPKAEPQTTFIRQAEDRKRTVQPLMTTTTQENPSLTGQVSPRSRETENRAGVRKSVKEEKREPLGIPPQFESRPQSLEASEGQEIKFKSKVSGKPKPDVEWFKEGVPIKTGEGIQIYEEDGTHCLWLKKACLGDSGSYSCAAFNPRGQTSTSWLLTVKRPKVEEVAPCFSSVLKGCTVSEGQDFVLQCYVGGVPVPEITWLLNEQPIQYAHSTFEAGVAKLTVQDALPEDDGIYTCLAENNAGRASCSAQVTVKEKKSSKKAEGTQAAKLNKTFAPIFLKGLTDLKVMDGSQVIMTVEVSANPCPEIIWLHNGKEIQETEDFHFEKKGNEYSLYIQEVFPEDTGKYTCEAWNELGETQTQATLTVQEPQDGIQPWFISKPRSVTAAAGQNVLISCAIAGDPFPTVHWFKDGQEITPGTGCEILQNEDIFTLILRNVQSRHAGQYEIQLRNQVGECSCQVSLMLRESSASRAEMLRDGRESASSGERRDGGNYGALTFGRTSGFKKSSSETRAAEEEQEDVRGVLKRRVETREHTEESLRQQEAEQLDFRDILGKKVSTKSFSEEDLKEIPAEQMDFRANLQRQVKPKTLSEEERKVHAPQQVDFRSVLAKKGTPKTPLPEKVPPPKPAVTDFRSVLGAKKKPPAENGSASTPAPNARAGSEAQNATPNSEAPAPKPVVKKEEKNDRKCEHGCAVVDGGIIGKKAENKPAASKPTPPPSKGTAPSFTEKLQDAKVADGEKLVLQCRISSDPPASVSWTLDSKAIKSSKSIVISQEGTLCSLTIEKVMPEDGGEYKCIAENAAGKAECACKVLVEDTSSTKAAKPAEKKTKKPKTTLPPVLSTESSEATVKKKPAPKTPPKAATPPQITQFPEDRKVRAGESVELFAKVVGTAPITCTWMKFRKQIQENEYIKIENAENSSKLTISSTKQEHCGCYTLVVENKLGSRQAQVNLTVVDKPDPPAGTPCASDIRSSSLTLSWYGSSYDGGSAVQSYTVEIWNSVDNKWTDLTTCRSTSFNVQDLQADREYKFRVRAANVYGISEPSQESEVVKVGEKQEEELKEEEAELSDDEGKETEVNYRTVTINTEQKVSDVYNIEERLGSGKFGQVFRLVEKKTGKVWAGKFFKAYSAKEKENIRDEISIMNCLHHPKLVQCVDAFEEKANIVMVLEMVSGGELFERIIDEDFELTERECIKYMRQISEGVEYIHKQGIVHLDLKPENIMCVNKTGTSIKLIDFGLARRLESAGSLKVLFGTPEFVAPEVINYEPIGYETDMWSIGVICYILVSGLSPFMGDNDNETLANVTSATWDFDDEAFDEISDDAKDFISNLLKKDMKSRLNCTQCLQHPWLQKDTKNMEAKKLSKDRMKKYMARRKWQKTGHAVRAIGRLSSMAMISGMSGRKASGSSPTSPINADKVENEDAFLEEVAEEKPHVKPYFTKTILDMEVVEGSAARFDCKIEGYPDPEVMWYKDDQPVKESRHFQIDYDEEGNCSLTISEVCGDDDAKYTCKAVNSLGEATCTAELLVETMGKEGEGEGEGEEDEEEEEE
# assay_info: Inhibition of native form of myosin light chain kinase at from chicken gizzard 100 uM
Residues, ends and D or L forms follow the SMILES beside them. *: point of attachment. OBn = c1ccc(CO*)cc1
quantity_measured: inhibition (%)

molecule=CC(C)[C@H](NC(=O)[C@@H](CC(N)=O)NC(=O)[C@H](N)CO)C(=O)N[C@@H](Cc1ccccc1)C(=O)N[C@@H](C)C(=O)OCc1ccccc1 system_under_test="Myosin light chain kinase, smooth muscle (Gallus gallus) (UniProt P11799)" result_number=14

[1] CC(C)[C@H](NC(=O)[C@H](CO)NC(=O)[C@@H](N)CO)C(=O)N[C@@H](Cc1ccccc1)C(=O)N[C@@H](C)C(=O)OCc1ccccc1 (H-SSVFA-OBn)
[2] CC(C)[C@H](NC(=O)[C@H](CCC(N)=O)NC(=O)[C@@H](N)CO)C(=O)N[C@@H](Cc1ccccc1)C(=O)N[C@@H](C)C(=O)OCc1ccccc1 (H-SQVFA-OBn)
[3] CC(C)[C@H](NC(=O)[C@H](Cc1c[nH]cn1)NC(=O)[C@@H](N)CO)C(=O)N[C@@H](Cc1ccccc1)C(=O)N[C@@H](C)C(=O)OCc1ccccc1 (H-SHVFA-OBn)
## Input Please rank these molecules by inhibition in descending order. Answer with the labels in sequence, matching the requested order.
## Output 2, 1, 3
(2: 32%, 1: 15%, 3: 0%)

====

# system_under_test: Myosin light chain kinase, smooth muscle (Gallus gallus)
# Sequence (P11799 whole entry): as above
# assay_info: Inhibition of native form of chicken MLCK (myosin light chain kinase)
Non-standard residues stand in square brackets, D forms with d. Residues, ends and D or L forms follow the SMILES beside them. *: point of attachment. Bip = N[C@@H](Cc1ccc(-c2ccccc2)cc1)C(=O)O; Dip = N[C@H](C(=O)O)C(c1ccccc1)c1ccccc1; X3 = c1ccc(CCCCO*)cc1; OBn = c1ccc(CO*)cc1
quantity_measured: IC50 (µM)

Consider the reported IC50 for these compounds:
compound=CC(C)[C@@H](NC(=O)[C@@H](CC(N)=O)NC(=O)[C@H](N)CO)C(=O)N[C@H](Cc1ccccc1)C(=O)N[C@H](C)C(=O)OCc1ccccc1 system_under_test="Myosin light chain kinase, smooth muscle (Gallus gallus)" quantity_measured=IC50 result_number=12
compound="CC(C)[C@H](NC(=O)[C@H](CC(N)=O)NC(=O)[C@@H](N)CO)C(=O)N[C@@H](Cc1ccccc1)C(=O)OCc1ccccc1 (H-SNVF-OBn)" system_under_test="Myosin light chain kinase, smooth muscle (Gallus gallus)" quantity_measured=IC50 result_number=160
compound=CC(C)[C@H](NC(=O)[C@H](CC(N)=O)NC(=O)[C@@H]1C[C@H](O)CN1)C(=O)N[C@@H](Cc1ccccc1)C(=O)N[C@@H](C)C(=O)OCc1ccccc1 system_under_test="Myosin light chain kinase, smooth muscle (Gallus gallus)" quantity_measured=IC50 result_number=56
compound="CC(C)[C@H](NC(=O)[C@H](CC(N)=O)NC(=O)[C@@H](N)CO)C(=O)N[C@H](C(=O)N[C@@H](C)C(=O)OCc1ccccc1)C(c1ccccc1)c1ccccc1 (H-SNV[Dip]A-OBn)" system_under_test="Myosin light chain kinase, smooth muscle (Gallus gallus)" quantity_measured=IC50 result_number=6
compound="CC(C)[C@H](NC(=O)[C@H](CC(N)=O)NC(=O)[C@H](CO)NC(=O)[C@@H](NC(=O)[C@H](C)N)[C@@H](C)O)C(=O)N[C@@H](Cc1ccccc1)C(=O)N[C@@H](C)C(=O)OCc1ccccc1 (H-ATSNVFA-OBn)" system_under_test="Myosin light chain kinase, smooth muscle (Gallus gallus)" quantity_measured=IC50 result_number=31
compound="CC(C)[C@H](NC(=O)[C@H](CC(N)=O)NC(=O)[C@@H](N)CO)C(=O)N[C@@H](Cc1ccccc1)C(=O)N[C@@H](C)C(=O)OCCCCc1ccccc1 (H-SNVFA-X3)" system_under_test="Myosin light chain kinase, smooth muscle (Gallus gallus)" quantity_measured=IC50 result_number=19

[I] CC(C)C[C@H](NC(=O)[C@H](CC(N)=O)NC(=O)[C@@H](N)CO)C(=O)N[C@@H](Cc1ccccc1)C(=O)N[C@@H](C)C(=O)OCc1ccccc1 (H-SNLFA-OBn)
[II] CC(C)[C@H](NC(=O)[C@H](CC(N)=O)NC(=O)[C@@H](N)CO)C(=O)N[C@@H](Cc1ccc(-c2ccccc2)cc1)C(=O)N[C@@H](C)C(=O)OCc1ccccc1 (H-SNV[Bip]A-OBn)
[III] CC(C)[C@H](NC(=O)[C@H](CC(N)=O)NC(=O)[C@@H](N)[C@@H](C)O)C(=O)N[C@@H](Cc1ccccc1)C(=O)N[C@@H](C)C(=O)OCc1ccccc1 (H-TNVFA-OBn)
[IV] CSCC[C@H](N)C(=O)N[C@@H](CC(N)=O)C(=O)N[C@H](C(=O)N[C@@H](Cc1ccccc1)C(=O)N[C@@H](C)C(=O)OCc1ccccc1)C(C)C (H-MNVFA-OBn)
## Input Please rank these compounds by IC50 in descending order. Answer with the labels in sequence, matching the requested order.
## Output IV, III, I, II
(IV: 76 µM, III: 18 µM, I: 3 µM, II: 1 µM)
